target: GSK-3β (Homo sapiens, UniProt P49841); test: GSK-3β kinase inhibition, Z'-LYTE FRET assay (Thermo Fisher SelectScreen); type: biochemical; conditions: 10 μM
Sequence (P49841 whole entry): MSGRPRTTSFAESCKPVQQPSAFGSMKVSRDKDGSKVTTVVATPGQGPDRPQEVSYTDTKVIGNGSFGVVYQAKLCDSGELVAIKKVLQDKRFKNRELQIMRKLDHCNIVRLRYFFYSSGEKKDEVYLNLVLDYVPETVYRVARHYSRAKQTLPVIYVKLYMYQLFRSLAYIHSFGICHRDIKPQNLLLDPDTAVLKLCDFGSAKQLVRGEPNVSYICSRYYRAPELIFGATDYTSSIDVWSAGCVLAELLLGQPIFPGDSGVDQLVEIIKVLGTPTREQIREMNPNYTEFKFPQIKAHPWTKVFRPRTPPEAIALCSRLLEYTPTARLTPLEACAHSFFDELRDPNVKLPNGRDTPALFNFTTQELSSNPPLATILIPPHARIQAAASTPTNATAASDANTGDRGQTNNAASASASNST
value type: inhibition at 10 µM (%)

Worked cases, inhibition at 10 µM given:
COc1ccc(C=NNC(=O)COc2ncnc3sc4c(c23)CCCC4)c(OC)c1OC ... 6
O=C(COc1ncnc2sc3c(c12)CCCC3)NN=Cc1ccc(Cl)cc1 ... 3

1. CN(C)c1ccc(C=NNC(=O)COc2ncnc3sc4c(c23)CCCC4)cc1
2. S=C(Nc1ccccc1)Nc1ncnc2sc3c(c12)CCCC3
Task item: Short answer wanted: higher inhibition at 10 µM, 1 or 2 ? // output: label of the selected item
Reply: 2
(2: 17%, 1: 5%)
